Exercise: state measured Percentage of donors demonstrating IL-4 responses, DR9 for each of the sequences provided.
System: CD4 T cells co-cultured with autologous DCs from PBMCs
Type: cell-based, human
Details: DR9 donors N=4; positive = Stimulation Index ≥1.5-fold above baseline; ICCS, 5 µg/mL peptide
Answers are plain numbers, in %.

Some solved cases for reference:
DKHIEKYLKRIQNSLSTEWS [ICS9]: 0
IKKYLKKIKNSISTEWSPCS [ICS6]: 25
DQHIEQYLKKIQNSISTEWS [ICS3]: 0
DQHIEQYLKTIQNSLSTEWS [ICS4]: 0

Turning now to a further record.
query: Please look up its Percentage of donors demonstrating IL-4 responses, DR9: DQHIEKYLKTIKNSLSTEWS [ICS10]
result: 0
